- Tested on: various cell lines of different tumor origins
- assay: Inhibition of cell proliferation, InCell Analyzer assay
- Assay type: cell-based
- stated-conditions: Homo sapiens, A-375, A375, Skin

# compound, target-under-test, IC50
measured = [
    ("COc1cc(N2CCC(N3CCCCC3)CC2)ccc1Nc1nccc(-c2c(-c3cccc(C(=O)Nc4c(F)cccc4F)c3)nc3ccccn23)n1 [Example 22]", "various cell lines of different tumor origins", "1000 to 5000 nM"),
]

---

Let's look at some molecules and their measured pIC50.
- target-under-test: human IGF-1R (NIH-3T3 cells over expressing human IGF-1R) (Homo sapiens, UniProt P08069)
- Sequence (P08069 31-1367): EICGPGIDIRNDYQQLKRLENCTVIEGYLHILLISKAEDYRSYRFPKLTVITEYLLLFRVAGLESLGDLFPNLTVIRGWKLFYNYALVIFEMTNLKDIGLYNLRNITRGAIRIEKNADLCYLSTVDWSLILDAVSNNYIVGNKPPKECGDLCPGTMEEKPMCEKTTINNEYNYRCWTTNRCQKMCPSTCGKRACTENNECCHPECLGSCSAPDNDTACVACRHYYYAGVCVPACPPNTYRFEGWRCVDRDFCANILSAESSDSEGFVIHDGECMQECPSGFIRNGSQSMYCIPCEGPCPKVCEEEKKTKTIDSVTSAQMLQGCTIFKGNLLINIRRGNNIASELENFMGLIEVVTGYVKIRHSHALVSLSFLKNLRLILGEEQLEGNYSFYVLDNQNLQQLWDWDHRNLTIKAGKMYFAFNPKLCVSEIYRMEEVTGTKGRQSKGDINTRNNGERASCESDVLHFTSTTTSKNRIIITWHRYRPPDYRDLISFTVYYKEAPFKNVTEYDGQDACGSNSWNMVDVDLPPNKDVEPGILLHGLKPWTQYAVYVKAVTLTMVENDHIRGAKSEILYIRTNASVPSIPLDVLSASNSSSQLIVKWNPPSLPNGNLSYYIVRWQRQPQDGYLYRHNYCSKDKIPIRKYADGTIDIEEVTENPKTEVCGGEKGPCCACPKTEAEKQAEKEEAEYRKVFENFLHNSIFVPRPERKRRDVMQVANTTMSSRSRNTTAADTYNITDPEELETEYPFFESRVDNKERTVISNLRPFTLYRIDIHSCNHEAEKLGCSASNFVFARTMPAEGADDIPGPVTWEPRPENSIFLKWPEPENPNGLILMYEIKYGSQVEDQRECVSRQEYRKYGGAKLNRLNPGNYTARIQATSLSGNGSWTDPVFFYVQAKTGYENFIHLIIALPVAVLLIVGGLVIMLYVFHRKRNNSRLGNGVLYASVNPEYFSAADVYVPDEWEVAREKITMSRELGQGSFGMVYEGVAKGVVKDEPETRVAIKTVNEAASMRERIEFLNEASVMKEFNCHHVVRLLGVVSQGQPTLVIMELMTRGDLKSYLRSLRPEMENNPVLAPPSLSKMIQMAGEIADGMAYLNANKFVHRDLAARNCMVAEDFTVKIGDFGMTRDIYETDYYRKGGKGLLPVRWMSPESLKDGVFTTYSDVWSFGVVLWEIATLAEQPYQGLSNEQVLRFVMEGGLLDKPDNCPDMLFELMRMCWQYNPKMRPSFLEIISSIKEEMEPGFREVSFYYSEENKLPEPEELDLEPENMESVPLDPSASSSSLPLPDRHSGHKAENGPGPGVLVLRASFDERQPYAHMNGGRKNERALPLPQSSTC
- assay: IGF-1R cellular autophosphorylation (DELFIA)
- stated-conditions: IGF-1 stimulated
pIC50: −log10 of the molar value.
readout-type: pIC50

# mol-smiles, result
records = [
    ("CCOc1cc(N2CCN(C3CCN(CCS(C)(=O)=O)CC3)CC2)ccc1Nc1nccc(-c2c(-c3cccc(C(=O)Nc4c(F)cccc4F)c3)nc3ccccn23)n1", "> 7.00"),
    ("COc1cc(N2CCC(CCS(C)(=O)=O)CC2)ccc1Nc1nccc(-c2c(-c3ccc(OC)c(C(=O)Nc4c(F)cccc4F)c3)nc3ccccn23)n1", "> 7.00"),
    ("COc1cc(N2CCC(O)CC2)ccc1Nc1nccc(-c2c(-c3cccc(C(=O)Nc4c(F)cccc4F)c3)nc3ccccn23)n1", "> 7.00"),
    ("CC(C)Cc1cc(N2CCC(N3CCCCC3)CC2)ccc1Nc1nccc(-c2c(-c3cccc(C(=O)Nc4c(F)cccc4F)c3)nc3ccccn23)n1", "> 7.00"),
    ("COc1cc(N2CCC(N3CCN4CCOC[C@@H]4C3)CC2)ccc1Nc1nccc(-c2c(-c3ccc(OC)c(C(=O)Nc4c(F)cccc4F)c3)nc3ccccn23)n1", "> 7.00"),
    ("CCOc1cc(N2CCN(C3CCN(CCF)CC3)CC2)ccc1Nc1nccc(-c2c(-c3cccc(C(=O)Nc4c(F)cccc4F)c3)nc3ccccn23)n1", "> 7.00"),
    ("CCOc1cc(C2CCN(CCS(C)(=O)=O)CC2)ccc1Nc1nccc(-c2c(-c3cccc(C(=O)Nc4c(F)cccc4F)c3)nc3ccccn23)n1", "> 7.00"),
    ("Cc1cc(OC2CCNCC2)ccc1Nc1nccc(-c2c(-c3cccc(C(=O)Nc4c(F)cccc4F)c3)nc3ccccn23)n1", "6.30 to 7.00"),
    ("COc1cc(N2CCC(N3CCCCCC3)CC2)ccc1Nc1nccc(-c2c(-c3cccc(C(=O)Nc4c(F)cccc4F)c3)nc3ccccn23)n1", "> 7.00"),
    ("COc1cc(N2CCN3CCOC[C@@H]3C2)ccc1Nc1nccc(-c2c(-c3cccc(C(=O)Nc4c(F)cccc4F)c3)nc3ccccn23)n1", "6.30 to 7.00"),
    ("CCOc1cc(N2CCN(CCS(C)(=O)=O)CC2)ccc1Nc1nccc(-c2c(-c3ccc(OC)c(C(=O)Nc4c(F)cccc4F)c3)nc3ccccn23)n1", "> 7.00"),
    ("COc1cc(C2CCN(CCS(C)(=O)=O)CC2)ccc1Nc1nccc(-c2c(-c3cccc(C(=O)Nc4c(F)cccc4F)c3)nc3ccccn23)n1", "> 7.00"),
]
